Hey, just so you know, these numbers are from paper PMC6605687.

- tested_target: rP2X2 Val96Vah (Rattus norvegicus)
- Sequence (P49653 whole entry): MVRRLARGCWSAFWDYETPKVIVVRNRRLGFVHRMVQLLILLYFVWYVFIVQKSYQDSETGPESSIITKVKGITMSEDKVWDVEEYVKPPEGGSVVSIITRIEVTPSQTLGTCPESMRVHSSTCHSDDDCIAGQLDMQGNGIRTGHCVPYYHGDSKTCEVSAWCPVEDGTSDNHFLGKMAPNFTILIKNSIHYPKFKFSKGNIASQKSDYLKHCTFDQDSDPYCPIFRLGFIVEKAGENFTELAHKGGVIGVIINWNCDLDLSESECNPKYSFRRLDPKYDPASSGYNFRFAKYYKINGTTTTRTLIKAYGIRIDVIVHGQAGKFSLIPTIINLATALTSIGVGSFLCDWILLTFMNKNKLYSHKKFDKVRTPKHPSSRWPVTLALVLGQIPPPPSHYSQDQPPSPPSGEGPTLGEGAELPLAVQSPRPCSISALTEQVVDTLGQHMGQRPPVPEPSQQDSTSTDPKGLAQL
- method_notes: Two-electrode voltage clamp, oocytes expressing rP2X2 Val96Vah
recorded_metric: pEC50
# pEC50 is unitless: minus log10 of the molar concentration; print number only

Inquiry: Looking for the measured pEC50 of Nc1ncnc2c1ncn2[C@@H]1O[C@H](COP(=O)(O)OP(=O)(O)OP(=O)(O)O)[C@@H](O)[C@H]1O [ATP, Adenosine 5′-triphosphate] , can you help?
Reply text: 4.57

----------
This listing pairs molecules with measured EC50.
- tested_target: rP2X2 Thr184Val (Rattus norvegicus, UniProt P49653, T184V)
- Sequence (P49653 whole entry T184V): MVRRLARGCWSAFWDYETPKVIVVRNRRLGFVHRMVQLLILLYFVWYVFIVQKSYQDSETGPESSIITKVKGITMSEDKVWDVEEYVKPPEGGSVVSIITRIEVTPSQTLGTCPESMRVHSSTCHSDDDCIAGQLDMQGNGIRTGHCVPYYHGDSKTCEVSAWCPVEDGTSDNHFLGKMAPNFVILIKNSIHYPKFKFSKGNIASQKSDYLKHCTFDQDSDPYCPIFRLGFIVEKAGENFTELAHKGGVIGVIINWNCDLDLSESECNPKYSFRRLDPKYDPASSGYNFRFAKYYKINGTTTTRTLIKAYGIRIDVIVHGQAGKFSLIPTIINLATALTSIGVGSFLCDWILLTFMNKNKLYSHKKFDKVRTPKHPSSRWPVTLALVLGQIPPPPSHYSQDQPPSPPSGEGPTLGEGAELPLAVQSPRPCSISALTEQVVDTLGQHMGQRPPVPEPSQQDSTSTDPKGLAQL
- method_notes: Two-electrode voltage clamp, oocytes expressing rP2X2 Thr184Val
Just the number in mM, nothing appended.

>>> obs_value("Nc1ncnc2c1ncn2[C@@H]1O[C@H](COP(=O)(O)OP(=O)(O)OP(=O)(O)O)[C@@H](O)[C@H]1O [ATP, Adenosine 5′-triphosphate]")
3.2

# input for lookup
Inquiry: # value lookup — system rP2X2 Thr184Val (Rattus norvegicus, UniProt P49653, T184V), readout EC50, item Nc1ccn([C@@H]2O[C@H](COP(=O)(O)OP(=O)(O)OP(=O)(O)O)[C@@H](O)[C@H]2O)c(=O)n1 [CTP, Cytidine 5′-triphosphate]
Reply text: 11.7
